Test system: PPARg:RXRa DBDmut IVT, anti-RXR (DBD mutation: RXRa K156A/R161A, NR concentration 270 nM, RXRa partner concentration 90 nM)
procedure-text: PBM binding z-score (relative to random genomic background probes); higher = stronger binding; sequences stand for … in GC…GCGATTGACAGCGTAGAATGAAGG

| input-sequence | PBM binding z-score |
| --- | --- |
| CGAACTAGGTCAGAACTGGACAGTGAAGGATGAT | 6.94 |
| GTAACGAGGGCATTCGAGTTGATAGCATGGCGAT | 3.16 |
| GCTGTTAGTTGAAAGGGCAACCGAATGATTCTCG | 0.247 |
| TAGCCTAGGTCAGTCAGGGGCCAGTATAGAAAGC | 0.759 |
| CCTGCTAGGTCATGGTCAGCTACTCTACAGTATG | 4.23 |
| CGTCCAAGGTTAGCAGGTCAGTGAAAGCGACGTG | 2 |
| ACTATTAGTTCAGACGAGGGCAACCGATAGGTTG | 0.264 |
| ACTATTAGTCGAGACGAGGGCAACCGATAGGTTG | -0.021 |
| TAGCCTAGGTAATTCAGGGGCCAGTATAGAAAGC | -0.0164 |
| TCATGTAGGTAAATGCTAGGTGAAAGTCCGATCT | 4.15 |
| TATACAGGGTCAAAGGCCAGTGTACGAATGTCGA | 1.89 |
| ATCGAAAGGTCGAGGTGAGTACAGAGAAAGGGAA | 0.64 |
| AGAATGAGGTGATACGTAGATCAGGGAAGAAAGT | 4.06 |
| TCGAGTAGGTTACGAATGGGGCATTCAGCTTTCT | 3.5 |
| CTAACGAGGGCATGAGTTGATAGCAAATGCCGAT | 3.84 |
| ATCTCTAGGCAAAGTTCAGTGAAAGATCGATAGA | 0.488 |
| TCGAGTAGGTTGCCAATGGGGCATTCAGCTTTCT | 0.771 |
| CCTACTGGGCCAAAGCTCATTGATTCCAATGCTC | 4.44 |
| CTCGAAAGGTTGGTTGAGGTGAGTATACGGATAA | -0.057 |
| GCATATAGGTAATAGAAGGTGAAAGTCCGATTGT | 3.98 |
| GATACAGGGTCAGCTAGAGGCCAGAGTTTGGAAA | 1.39 |
| CATACAGGGTCAGCTACGCCAGAGTAGGGACGGC | 1.11 |
| AGAATGAGGTTAAGATCAAGGAAACAGAATACAT | 2.65 |
| CCTAGCAGGCCAATCTGGGTGACTCAAGGCTTGA | 2.96 |
| TCGTGTAGATCAAAGGTTAAGAAAGCCGAAGCCT | 0.876 |
| ATCGAAAGGTCGAAGGTGAGTTTACCCACCCGAA | 0.357 |
| ACTTACGGGTCAACGAGGTTATAGAACGCGTATA | 3.53 |
| TAGCCTAGGTCATTCAGGGGCCAATATAGAAAGC | 1.85 |
| CCGACTGCGGCAAAGGTTACCATACTCAGTACGA | 0.233 |
| TCTTGTAGCTCAGCAGGTTAAGAAAGCTGGCCAA | 0.777 |
| GCTGCTAGGTCAGGTTGGTCAGATAACGGGTACG | 2.83 |
| GCAGACAGGTGAAACGCAGGTAACGCAGGGTGGC | 0.691 |
| CCATACGGGTCACGAGGTTATAGCACGACGAGCG | 3.91 |
| CCTTACGGGTCACAAGGTTATAGCACGACGAGCG | 3.76 |
| TCTGCTAGGTTAACGATGGTCAGCTAATCTGCTA | 2.11 |
| CAAACTAGGTCAAGGTCACAGTCGGTTTGTGCCA | 8.39 |
| ACTAGCAGGCCAAGTCTGGGTCACTCAAACAAAG | 2.25 |
| CAAACTAGGTCAAAGGTCTAAGTCGAGCCAACCA | 8.53 |
| ATCTCTAGGTGAGACTCAGTTCAGTGAAGAACGC | 4.55 |
| CCTATTATTTGACCATAAGGGCAACCGAAGCTCG | 0.801 |
| CGAACTAGGTCATTGACAGGACACTGAATAGTAA | 8.02 |
